target desc: UniProt P23458
Sequence (P23458 850-1154): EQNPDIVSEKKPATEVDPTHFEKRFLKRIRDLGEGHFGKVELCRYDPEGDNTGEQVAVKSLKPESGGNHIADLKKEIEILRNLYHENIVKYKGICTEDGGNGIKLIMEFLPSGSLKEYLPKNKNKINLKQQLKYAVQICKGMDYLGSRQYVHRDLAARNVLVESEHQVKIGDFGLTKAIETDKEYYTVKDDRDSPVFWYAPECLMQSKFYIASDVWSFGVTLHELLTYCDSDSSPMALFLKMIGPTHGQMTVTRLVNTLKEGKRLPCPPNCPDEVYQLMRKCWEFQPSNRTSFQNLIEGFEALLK
assay overview: In vitro JAK kinase assay (TR-FRET), JAK1
conditions used: catalytic domain aa 850-1154, GST-fusion; ATP 3 μM; peptide 60 nM; 30 minutes at room temperature
Could you mark each record MET if its IC50 falls strictly under 3 nM, and NOT MET if it equals or exceeds it?

Please review the following examples before continuing.
CCOc1nc(-c2cnn3ccccc23)nc(N[C@@H]2CCCN(C(=O)CO)C2)c1F = NOT MET
Cc1cc(-c2cc(N[C@@H]3CCCN(C(=O)CO)C3)nc(-c3cnn4ccccc34)n2)cc(C)n1 = MET
COC[C@H](C)Oc1nc(-c2cnn3ccccc23)nc(N[C@@H]2CCCN(C(=O)CO)C2)c1F = NOT MET
COc1nc(-c2cnn3ccccc23)nc(N[C@@H]2CCCN(C(=O)CO)C2)c1C = NOT MET
O=C(CO)N1CCC[C@@H](Nc2nc(-c3cnn4ccccc34)nc(OCCO)c2F)C1 = NOT MET

Given N#CCC(=O)N1CCC[C@@H](Nc2nc(-c3cnn4ccccc34)nc(N3CCC(C(=O)O)CC3)c2F)C1 , is recorded IC50 strictly lower than 3 nM?
MET

How about this molecule: Cc1ccc(-c2cc(N[C@@H]3CCCN(C(=O)CC#N)C3)nc(-c3cnn4ccccc34)n2)cn1
MET
